biological target: APJ receptor (Homo sapiens (Human), UniProt P35414); test: [35S]GTPγS binding assay on membranes from CHO cells stably expressing human APJ receptor; format: biochemical; conditions: membranes of CHO cells stably expressing human APJ receptor, means of several independent experiments, read-out: Activity hAPJ SPA EC50 IP
Sequence (P35414 whole entry): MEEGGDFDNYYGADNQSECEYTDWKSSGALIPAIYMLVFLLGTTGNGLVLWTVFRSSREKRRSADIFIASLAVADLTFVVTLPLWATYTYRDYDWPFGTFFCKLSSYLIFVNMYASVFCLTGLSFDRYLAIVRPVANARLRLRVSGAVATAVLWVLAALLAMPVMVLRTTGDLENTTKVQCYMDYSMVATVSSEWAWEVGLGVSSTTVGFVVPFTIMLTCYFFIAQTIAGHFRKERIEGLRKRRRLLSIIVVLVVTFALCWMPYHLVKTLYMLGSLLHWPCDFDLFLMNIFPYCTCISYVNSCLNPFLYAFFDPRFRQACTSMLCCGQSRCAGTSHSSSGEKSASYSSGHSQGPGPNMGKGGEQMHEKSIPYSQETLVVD
pEC50: −log10 of the molar value.
Where pEC50 equals or exceeds 9, the correct label is label 1; where it does not, the label is label 0.

Compound	Class Assignment
COc1cccc(OC)c1-n1c(NS(=O)(=O)CCN2Cc3ccccc3C2=O)nnc1-c1ccco1 [Example 2.0]	label 0
COc1cccc(OC)c1-n1c(NS(=O)(=O)[C@H](C)[C@@H](O)c2nccn2C)nnc1-c1ccc(C)o1 (single isomer, unassigned) [Example 297.0]	label 0
COc1cccc(OC)c1-n1c(NS(=O)(=O)CCc2ncc(Cl)cc2CCN2CCCC2)nnc1-c1ccco1 [Example 232.0]	label 1
COc1ccnc(N2C[C@H](O)C[C@H](S(=O)(=O)Nc3nnc(-c4ccc(C)o4)n3-c3c(OC)cccc3OC)C2)n1 (mixture of isomers) [Example 324.0]	label 1
COCCn1c(NS(=O)(=O)[C@@H](C)[C@H](OC)c2ncc(Cl)cn2)nnc1-c1ccc(C)o1 [Example 386.0]	label 0

---

target: APJ receptor (Homo sapiens (Human), UniProt P35414); test: [35S]GTPγS binding assay on membranes from CHO cells stably expressing human APJ receptor; details: membranes of CHO cells stably expressing human APJ receptor, means of several independent experiments, read-out: Activity hAPJ SPA EC50 IP
Each entry below carries its reported EC50.
Property Label: EC50 (nM)

Compound	Reported Value
C[C@@H](Cc1ncc(F)cn1)S(=O)(=O)Nc1nnc(-c2ccco2)n1-c1cccc2ccccc12 (mixture of isomers) [Example 314.0]	230
COc1cccc(OC)c1-n1c(NS(=O)(=O)[C@H](C)Cc2ncc(F)cn2)nnc1-c1cc(C)c(C)o1 (single isomer, unassigned) [Example 89.0]	1.9
COc1cccc(OC)c1-n1c(NS(=O)(=O)[C@@H](C)[C@@H](O)c2cc3ccccn3n2)nnc1-c1ccc(C)o1 (single isomer, unassigned) [Example 304.0]	16
COc1ccc(-n2c(NS(=O)(=O)[C@@H](C)Cc3ncc(F)cn3)nnc2-c2ccco2)c(OC)c1 (mixture of isomers) [Example 315.0]	270
COc1cccc(OC)c1-n1c(NS(=O)(=O)[C@@H]2CCC[C@H]2c2ncc(F)cn2)nnc1-c1ccco1 (single isomer, unassigned) [Example 104.0]	22
COc1cccc(OC)c1-n1c(NS(=O)(=O)[C@H](C)Cc2ccc(C)nn2)nnc1-c1ccc(C)o1 (single isomer, unassigned) [Example 43.0]	25
COc1cccc(OC)c1-n1c(NS(=O)(=O)[C@H](C)Cc2ncc(Cl)cc2C#N)nnc1-c1ccco1 (single isomer, unassigned) [Example 20.0]	0.3
COc1cccc(OC)c1-n1c(NS(=O)(=O)[C@H](C)[C@@H](OC)c2ccc(C#N)cc2C#N)nnc1-c1ccc(C)o1 (single isomer, unassigned) [Example 143.0]	0.072
COc1cccc(OC)c1-n1c(NS(=O)(=O)[C@@H]2C[C@H](C#N)CN(c3ncc(F)cn3)C2)nnc1-c1ccc(C)o1 (single isomer, unassigned) [Example 174.0]	1.9
COc1cccc(OC)c1-n1c(NS(=O)(=O)[C@@H](C)[C@H](C)c2cnc(C)cn2)nnc1-c1ccc(C)o1 [Example 148.0]	0.19
COc1cccc(OC)c1-n1c(NS(=O)(=O)[C@H](C)[C@@H](O)c2cnc3ccccn23)nnc1-c1ccc(C)o1 (single isomer, unassigned) [Example 294.0]	5.8
COc1cccc(OC)c1-n1c(NS(=O)(=O)CCc2ccc(F)cc2C#N)nnc1-c1ccc(C(F)(F)F)o1 [Example 131.0]	3.9
